- target or system: Telomerase reverse transcriptase (Homo sapiens) (UniProt O14746)
- Sequence (O14746 whole entry): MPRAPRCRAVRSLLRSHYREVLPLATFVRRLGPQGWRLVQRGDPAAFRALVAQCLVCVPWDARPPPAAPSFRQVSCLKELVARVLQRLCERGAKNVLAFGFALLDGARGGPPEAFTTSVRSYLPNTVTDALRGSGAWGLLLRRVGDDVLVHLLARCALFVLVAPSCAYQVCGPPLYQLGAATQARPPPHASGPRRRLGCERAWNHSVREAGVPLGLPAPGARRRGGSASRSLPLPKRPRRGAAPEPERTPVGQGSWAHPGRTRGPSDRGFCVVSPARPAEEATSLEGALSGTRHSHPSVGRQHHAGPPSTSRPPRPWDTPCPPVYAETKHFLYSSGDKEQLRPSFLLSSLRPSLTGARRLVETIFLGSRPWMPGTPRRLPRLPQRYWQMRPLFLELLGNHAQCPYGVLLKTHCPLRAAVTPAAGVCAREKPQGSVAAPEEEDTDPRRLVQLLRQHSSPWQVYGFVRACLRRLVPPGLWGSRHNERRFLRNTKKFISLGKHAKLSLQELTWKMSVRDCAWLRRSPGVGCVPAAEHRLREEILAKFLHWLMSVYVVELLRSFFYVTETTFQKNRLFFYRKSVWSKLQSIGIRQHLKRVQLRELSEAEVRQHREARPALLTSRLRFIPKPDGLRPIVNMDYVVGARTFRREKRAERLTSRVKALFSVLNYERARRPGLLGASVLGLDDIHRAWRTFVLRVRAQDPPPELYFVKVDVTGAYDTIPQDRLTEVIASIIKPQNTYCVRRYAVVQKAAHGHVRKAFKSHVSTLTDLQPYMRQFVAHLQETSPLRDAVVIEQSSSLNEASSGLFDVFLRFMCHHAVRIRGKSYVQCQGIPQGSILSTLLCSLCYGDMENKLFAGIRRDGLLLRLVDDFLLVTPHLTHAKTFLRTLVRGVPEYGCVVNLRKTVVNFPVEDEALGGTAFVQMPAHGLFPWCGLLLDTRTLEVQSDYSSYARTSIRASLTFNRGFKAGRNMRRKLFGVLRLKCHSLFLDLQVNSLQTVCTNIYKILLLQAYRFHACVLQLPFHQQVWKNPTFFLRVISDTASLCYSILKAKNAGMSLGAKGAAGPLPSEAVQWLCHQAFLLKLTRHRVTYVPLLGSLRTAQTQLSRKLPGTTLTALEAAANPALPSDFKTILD
- assay: Inhibition of telomerase at 10 uM after 30 mins by TRAP assay
readout label: inhibition (%)

Recorded inhibition, per entry:
- entry smiles: "CN(C)CCCn1c(=O)c2cc3cc(CCN4CCCCC4)c4cc5c(=O)n(CCCN(C)C)c(=O)c6cc7cc(CCN8CCCCC8)c8cc(c1=O)c2c1c3c4c(c65)c7c81"
  target or system: "Telomerase reverse transcriptase (Homo sapiens) (UniProt O14746)"
  result unit: "%"
  inhibition: 52
- entry smiles: "O=c1c2cc3cc(CCN4CCCCC4)c4cc5c(=O)n(CCN6CCCCC6)c(=O)c6cc7cc(CCN8CCCCC8)c8cc(c(=O)n1CCN1CCCCC1)c2c1c3c4c(c65)c7c81"
  target or system: "Telomerase reverse transcriptase (Homo sapiens) (UniProt O14746)"
  result unit: "%"
  inhibition: 38

A: CN1CCN(CCc2cc3cc4c(=O)n(CCN5CCCCC5)c(=O)c5cc6c(CCN7CCN(C)CC7)cc7cc8c(=O)n(CCN9CCCCC9)c(=O)c9cc2c2c3c(c45)c6c7c2c89)CC1
B: CN(C)CCCn1c(=O)c2cc3cc(CCN4CCN(C)CC4)c4cc5c(=O)n(CCCN(C)C)c(=O)c6cc7cc(CCN8CCN(C)CC8)c8cc(c1=O)c2c1c3c4c(c65)c7c81
// compare: A vs B , metric inhibition, want the smaller Answer = label. A
(A: 44%, B: 66%)
